# RUN DESCRIPTION: Human HepG2 cell viability assay in 384 well format
# Format: toxicity, cell-based
# Set-up: dose 125 nL, time 70.5 hour; concentration not given beside the values
# SETTINGS: HepG2 cells, read-out: Inhibition
# reported cytotoxicity at 70.5 h; entries follow

COMPOUND	cytotoxicity at 70.5 h [%]
COc1ccc2[nH]cc(C(=O)CNc3nc(C)cs3)c2c1	6.66
COc1ccccc1CNc1c(N2CCN(C(C)=O)CC2)c(=O)c1=O	-10.2
CNC(=O)[C@H]1CC[C@@H]2[C@@H](CCN2C(=O)N(C)C)O1	-5.62
CCc1ncc2c(n1)CN(Cc1nc3c(F)cccc3[nH]1)CC2	-5.3
CCC(Nc1ncccn1)c1ccc(OC)cc1 (stereo unspecified)	6.83
CO[C@H]1CCN(S(=O)(=O)c2cn(C)cn2)[C@H]1Cc1cccnc1	-22.4
CCCNC(=O)NC(C)c1ccccn1 (stereo unspecified)	-11.1
Cc1[nH]c(=O)[nH]c(=O)c1CC(=O)N1CCC(Oc2ccc(F)cc2)CC1	-12.2
Cc1occc1C(=O)N1CCn2c(Cn3cncn3)cnc2C1C (stereo unspecified)	50.5
Cc1n[nH]cc1CNC(C(=O)N1CCOCC1)c1ccccc1 (stereo unspecified)	15.2
O=C(NCC(=O)N1CCCC1)c1nn(-c2ccccc2F)cc1O	3.63
Cc1cccc(N(CCC(N)=O)CC(=O)NC2CCCC2)c1	18
COc1ccccc1N1CCC(N2CCOC(C(F)(F)F)C2)CC1 (stereo unspecified)	-3.26
Cc1nc(C)n(CC2CN(Cc3cccc4c3OCCO4)CCO2)n1 (stereo unspecified)	1.12
O=c1[nH]c(-c2ccncc2)ncc1-c1ccnc(NC2CC2)n1	23.6
O=C(CSCC1CC1)N1CCCC2(CCC(=O)N(CC3CC3)C2)C1 (stereo unspecified)	-25.9
